tested on: ATP; assay: switch fluorescence ratio, 500 uM ATP over buffer (Cy3 cluster intensity, sum of 5 cycles each) (fold (ratio)); higher = stronger signal-on switching upon ATP binding; sequences stand for … in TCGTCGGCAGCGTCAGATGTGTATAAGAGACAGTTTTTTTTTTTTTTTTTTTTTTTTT…TC; details: aptamer strand: ATP DNA aptamer (quencher-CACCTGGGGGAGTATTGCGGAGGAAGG + anchor), 100 nM annealed; ATP concentration: 500 uM;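 also: ATP exposure 15 min at 22 °C before imaging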
# switch fluorescence ratio per entry
Answer with a bare number; do not write a unit.

{"columns": ["Residue sequence", "Measurement name", "Observed measurement"],
 "data": [
  ["TTATTACGGA", "switch fluorescence ratio", 1.03]
]}

[ask] Consider the sequence `TAGCTATTGT` and give its recorded switch fluorescence ratio.
[reply] 0.984

[ask] Return the recorded switch fluorescence ratio value; entry: `TAGGTATTGT`
[reply] 1

[ask] Quick one: give measured switch fluorescence ratio for `CTTATAGGTG`
[reply] 1.14

[ask] Identify measured switch fluorescence ratio corresponding to `AGCGATAGTC`
[reply] 1.56

[ask] State its switch fluorescence ratio for this sequence: `AACGACCCCC`
[reply] 1.74
